Test System: F protein of wild type RSV A/Long (respiratory syncytial virus, strain …, UniProt P12568 26-574)
Sequence (P12568 26-574): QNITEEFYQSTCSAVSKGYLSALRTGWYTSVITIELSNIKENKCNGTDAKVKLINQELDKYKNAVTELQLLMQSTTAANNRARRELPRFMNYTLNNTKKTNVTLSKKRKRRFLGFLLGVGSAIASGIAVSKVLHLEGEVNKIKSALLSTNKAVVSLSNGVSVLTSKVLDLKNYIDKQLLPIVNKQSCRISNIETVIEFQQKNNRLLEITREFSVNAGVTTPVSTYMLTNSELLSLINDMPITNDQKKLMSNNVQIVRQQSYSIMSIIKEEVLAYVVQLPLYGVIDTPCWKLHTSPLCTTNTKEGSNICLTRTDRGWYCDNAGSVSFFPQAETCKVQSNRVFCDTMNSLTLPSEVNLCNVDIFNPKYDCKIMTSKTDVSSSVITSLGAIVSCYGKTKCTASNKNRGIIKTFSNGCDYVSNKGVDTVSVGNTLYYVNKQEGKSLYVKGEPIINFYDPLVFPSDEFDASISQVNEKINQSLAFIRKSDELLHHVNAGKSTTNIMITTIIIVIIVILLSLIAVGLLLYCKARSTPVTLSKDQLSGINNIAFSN
Measurement Protocol: cell-based or functional assay
Property: Mean IC50 (Control), RSV microneutralization
Field note: include the unit after the figure.

# example entries with known answers
A13c4 (Fab) (Fab, V domains shown) VH: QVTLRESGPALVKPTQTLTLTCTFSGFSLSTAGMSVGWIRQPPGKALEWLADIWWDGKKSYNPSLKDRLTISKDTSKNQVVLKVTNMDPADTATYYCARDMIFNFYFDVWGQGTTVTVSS VL: DIQMTQSPSTLSASVGDRVTITCSLSSRVGYMHWYQQKPGKAPKLLIYDTMYQSSGVPSRFSGSGSGTEFTLTISSLQPDDFATYYCFQGSGYPFTFGGGTKVEIK yielded Mean IC50 (Control), RSV microneutralization of 0.0258 µg/mL

P12f2 (Fab) (Fab, V domains shown, also called Pf12; P1212) VH: QVTLRESGPALVKPTQTLTLTCTFSGFSLSTPGMSVGWIRQPPGKALEWLADIWWDDKKHYNPSLKDRLTISKDTSKNQVVLKVTNMDPADTATYYCARDMIFNFYFDVWGAGTTVTVSS VL: DIQMTQSPSTLSASVGDRVTITCSLSSRVGYMHWYQQKPGKAPKLLIYDTFYLSSGVPSRFSGSGSGTEFTLTISSLQPDDFATYYCFQGSGYPFTFGGGTKVEIK yielded Mean IC50 (Control), RSV microneutralization of 0.0326 µg/mL

P12f4 (monoclonal antibody) (antibody, V domains shown) VH: QVTLRESGPALVKPTQTLTLTCTFSGFSLSTPGMSVGWIRQPPGKALEWLADIWWDGKKHYNPSLKDRLTISKDTSKNQVVLKVTNMDPADTATYYCARDMIFNFYFDVWGQGTTVTVSS VL: DIQMTQSPSTLSASVGDRVTITCSLSSRVGYMHWYQQKPGKAPKLLIYDTRGLPSGVPSRFSGSGSGTEFTLTISSLQPDDFATYYCFQGSGYPFTFGGGTKVEIK yielded Mean IC50 (Control), RSV microneutralization of 0.0235 µg/mL

P11d4 (monoclonal antibody) (antibody, V domains shown) VH: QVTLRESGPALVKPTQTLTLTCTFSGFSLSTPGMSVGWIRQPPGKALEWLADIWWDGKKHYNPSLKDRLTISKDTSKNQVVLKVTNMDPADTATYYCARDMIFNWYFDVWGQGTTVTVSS VL: DIQMTQSPSTLSASVGDRVTITCSPSSRVGYMHWYQQKPGKAPKLLIYDTMRLASGVPSRFSGSGSGTEFTLTISSLQPDDFATYYCFQGSGYPFTFGGGTKVEIK yielded Mean IC50 (Control), RSV microneutralization of 0.0289 µg/mL

Now take the following binder into account.
P12f2 (monoclonal antibody) (antibody, V domains shown, also called Pf12; P1212) VH: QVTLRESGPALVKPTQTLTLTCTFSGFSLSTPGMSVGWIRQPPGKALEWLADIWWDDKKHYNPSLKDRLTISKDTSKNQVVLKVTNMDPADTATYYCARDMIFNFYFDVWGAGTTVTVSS VL: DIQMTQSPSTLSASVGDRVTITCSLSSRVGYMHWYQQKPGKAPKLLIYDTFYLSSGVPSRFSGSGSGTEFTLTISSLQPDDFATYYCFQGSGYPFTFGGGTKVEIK yielded Mean IC50 (Control), RSV microneutralization of 0.0223 µg/mL

These data points were gathered from patent US20020177126A1.
